experiment: NCI Yeast Anticancer Drug Screen. Data for the sgs1 mgt1 strain (AID 161);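 note: 0% = growth of cultures given vehicle only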; settings: S. cerevisiae sgs1 mgt1 strain, at 5.0 µM (retest, dose inferred, filed as 0.5), active compounds read high
Compounds without any hit were thinned out: in the full panel of roughly 79,000, 15% have a hit.
measured property: growth inhibition (%)
Numbers only, in %.

{"compound": "C1CCC(C2=NC3CCCCC3SC2)CC1 (stereo unspecified)", "unit label": "%", "growth inhibition": 5}
{"compound": "Oc1cc(Cl)cc2c1-c1ccc(Cl)cc1C2O (stereo unspecified)", "unit label": "%", "growth inhibition": -4}
{"compound": "COc1ccc(-c2cc(-c3ccc(OC)cc3OC)[n+](C)c(-c3ccc(OC)cc3OC)c2)cc1", "unit label": "%", "growth inhibition": 98}
{"compound": "COC(=O)C(CCC(=O)Cc1ccccc1)N1C(=O)c2ccccc2C1=O (stereo unspecified)", "unit label": "%", "growth inhibition": 16}
{"compound": "CCOC(=O)Nc1ccc(SCC2COC(Cn3ccnc3)(c3ccc(Cl)cc3Cl)O2)cc1 (stereo unspecified)", "unit label": "%", "growth inhibition": 84}

Batch of 2 compounds: report growth inhibition for each.
1. CCCCC1(CC)COC(c2ccccc2OC)OC1 (stereo unspecified)
2. Cc1cc(Cl)c2cc(Cc3ccc(Br)cc3)ccc2n1

-1
11
